Values were extracted from PubChem BioAssay AID1852.

Assay: TNF-a-driven NF-kB reporter inhibitors, primary screen, selectivity assay for NOD1/NOD2 signaling inhibitor project, cell-based, HEK293T NF-kB-Luc, luminescence (AID 1852)
Conditions: TNF-a induced, 14 h, at 4 µM
In all, about 2,500 compounds went through this assay and about 1,100 (44%) were called active.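 How the source made its calls: active means inhibition above 50% at 4 µM in the single-point screen; inactive means inhibition of 50% or less.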 So high a share suggests a set chosen from earlier hits. The list shows a part of the results.
Possible outcomes: active, inactive

1) COc1ccccc1OCCCOc1cccc(/C=C2\SC(=O)NC2=O)c1 = inactive
2) COc1ccc(N=C2NC(=O)/C(=C/c3ccc(O)c(OC)c3)S2)cc1 = active
3) CC(C)(C)C1CCC2(CC1)C(C#N)=C(SCC(=O)Nc1ccccc1)NC(=O)C2C#N (centres undefined) = active
4) COc1cc(Br)cc(/C=C/c2ccc3cccc(O)c3n2)c1O = inactive
5) CCc1nnc(NC(=O)c2ccc(Cl)c(S(=O)(=O)N3CCc4ccccc4C3)c2)s1 = inactive
6) COc1ccc(Cl)cc1/C=C/c1ccc2cccc(O)c2n1 = inactive
7) Cc1ccc(C(=O)NC(=C(Cl)Cl)S(=O)(=O)c2ccc(C)cc2)cc1 = inactive
8) N#CC1=C(SCC(=O)NC23CC4CC(CC(C4)C2)C3)NC(=O)C(C#N)C12CCCCC2 (centres undefined) = active
9) Cc1cc(C(=O)Nc2ccc(Cl)cc2)c(C)n1-c1ccccc1 = active
10) Cc1ccc(CNc2ncnc(N)c2[N+](=O)[O-])cc1 = inactive
11) O=[N+]([O-])c1ccc(O)c(Nc2ncnc3ccccc23)c1 = inactive
12) O=C(N/N=C/c1c(O)ccc2ccccc12)c1cccnc1 = active
13) O=C(c1ccc(Cl)cc1)C1CCCN(Cc2cnn(-c3ccccc3)c2)C1 (centres undefined) = inactive
14) CC1=C(/C=C/C(C)=N\NC(=O)c2ccncc2)C(C)(C)CCC1 = inactive
15) O=[N+]([O-])c1ccc(O)c(-c2cc(C(F)(F)F)nc(-c3ccccc3)n2)c1 = active
16) O=C(N/N=C\c1c(O)ccc2ccccc12)c1cncc(Br)c1 = active
17) COc1cccc(OCCOc2ccc(/C=C3/SC(=S)NC3=O)cc2)c1 = inactive
18) CCCS(=O)(=O)c1cnc(C2COc3ccccc3O2)nc1N (centres undefined) = inactive
19) COc1cccc(OCCOc2ccc(/C=C3\C(=N)N4N=C(S(C)(=O)=O)SC4=NC3=O)cc2OC)c1 = inactive
20) CCOc1ccc(-n2c(C)c(C(C)=O)c3cc(O)ccc32)cc1 = inactive
21) Cc1cccc(Nc2nc(N)nc(CCl)n2)c1C = inactive
22) Cc1oc(-c2ccc(Cl)cc2)nc1CSCC(=O)NC1CCN(Cc2ccccc2)CC1 = inactive
23) O=C(CNC(=O)c1cccc(Br)c1)N/N=C/c1cc(Br)cc(Br)c1O = inactive
24) CCc1nnc(NC(=O)c2ccc(Cl)c(S(=O)(=O)N3CCc4ccccc43)c2)s1 = active
25) Cc1ccc(C(=O)NC(=C(Cl)Cl)S(=O)(=O)c2ccc(Cl)cc2)cc1 = active
26) COc1ccc(OC)c(/C=C2\S/C(=N/NC(=O)c3ccc4ccccc4c3)NC2=O)c1 = inactive
27) COc1cc(/C=C2/SC(=Nc3ccc(O)cc3)NC2=O)ccc1O = active
28) COc1ccc2c(c1)c(C(C)=O)c(C)n2-c1ccc(C(C)=O)cc1 = active
29) C[C@@H](C(=O)Nc1ccc2ccccc2c1)[C@@H]1C[C@@]1(C)[C@@H](NC(=O)c1cccnc1)c1ccccc1 = inactive
30) Nc1ncnc(NCc2ccc(F)cc2)c1[N+](=O)[O-] = active
31) COc1ccc(OC)c(/C=C/c2ccc3cccc(O)c3n2)c1 = active
32) COc1ccc(C(C)=O)cc1Cn1c(=O)cc(C)[nH]c1=O = inactive
33) NC(=O)c1c(NC(=O)C(=O)N2CCOCC2)sc2c1CCCC2 = inactive
34) Cc1ccc(C(=O)NC(=C(Cl)Cl)S(=O)(=O)c2ccccc2)cc1 = active
35) CCOc1cc(Br)cc(/C=N/NC(=O)c2cccnc2)c1O = active
36) COc1ccc(Br)cc1/C=C/c1ccc2cccc(O)c2n1 = active
37) CCn1c(=O)c2c(cnn2C)c2ccccc21 = active
38) CCOc1cccc(/C=C/c2ccc3cccc(O)c3n2)c1O = inactive
39) CC(=O)NC(=C(Cl)Cl)S(=O)(=O)c1ccccc1 = inactive
40) Cc1ccc(O)c(C(=O)c2cc(C#N)c3nc4ccccc4n3c2)c1 = inactive
41) COc1cc(/C=C2\SC(=N)N(c3ccc(F)cc3)C2=O)ccc1O = active
42) Cc1ccc(-c2csc(N3CCN(CCCn4c(-c5ccncc5)nc5ccccc54)CC3)n2)cc1 = inactive
43) Cc1ccc(C(=O)NC(C#N)=C(Cl)Cl)cc1 = active
44) CC1CCC/C=C/C(=O)c2c(O)cc(O)cc2CC(=O)O1 (centres undefined) = active

* * *

Experiment: TNF-a-driven NF-kB reporter inhibitors, primary screen, selectivity assay for NOD1/NOD2 signaling inhibitor project, cell-based, HEK293T NF-kB-Luc, luminescence (AID 1852)
Details: TNF-a induced, 14 h, at 4 µM
About 1,100 (44%) of roughly 2,500 compounds were called active.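 Rule for the calls: active = inhibition above 50% at 4 µM in the single-point screen; inactive = inhibition of 50% or less.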 The set was probably picked from earlier hits. The list shows a part of the results.
Outcome codes: active, inactive

1. COc1ccc(OC)c(S(=O)(=O)Nc2ccc(O)c3ccccc23)c1 = active
2. O=C(CNc1cccc2ccccc12)N/N=C/c1ccc([N+](=O)[O-])o1 = inactive
3. O=C(N/N=C/c1ccc([N+](=O)[O-])o1)c1cc2ccccc2o1 = active
4. Cc1ccc(S(=O)(=O)n2c(N)nc3ccccc32)cc1 = inactive
5. CC1=C(CO)C(=O)OC([C@@H](C)C2CC[C@H]3C4C[C@H]5O[C@]56[C@@H](O)C=CC(=O)[C@]6(C)C4CC[C@]23C)C1 (some centres not stated) = active
6. O=[N+]([O-])c1ccc(NC(=S)NCCc2ccc(Cl)cc2)cc1 = active
7. COc1ccc(-c2csc(NC(=O)C3=NN(c4ccccc4)C(=O)CC3)n2)cc1 = inactive
8. CC1CN(CCCCOc2ccc(Cl)c3ccccc23)CC(C)O1 (configuration not stated) = inactive
9. N#Cc1ccc(Cl)cc1NC(=O)CSc1nc2nc(-c3cccs3)cc(C(F)(F)F)c2c(=O)[nH]1 = inactive
10. CC1(C)CC(N2CCN(C(c3ccccc3)c3ccccc3)CC2)=CC(=[N+]2CCCCC2)C1 = active
11. CCOc1ccc(NC(=O)c2ccccc2NS(=O)(=O)c2ccc(F)cc2)c([N+](=O)[O-])c1 = inactive
12. O=[N+]([O-])c1ccc(NC(=S)NCCc2ccc(F)cc2)cc1 = inactive
13. C/C(Cn1nnc([N+](=O)[O-])n1)=N\NC(=O)c1ccc(Cl)c(Cl)c1 = inactive
14. COc1cc([N+](=O)[O-])ccc1-c1ccc(/C=N/NC(=O)c2ccccc2O)o1 = inactive
15. O=C(Nc1nc(-c2ccccc2)cs1)c1ccccc1NS(=O)(=O)c1ccc(F)cc1 = active
16. Cc1ccc(-c2nnc(Sc3nc4ccccc4o3)c3ccccc23)cc1 = inactive
17. O=C(N/N=C/c1ccccn1)c1ccc(Cl)cc1 = inactive
18. O=C(Nc1c(Cl)ccc2nsnc12)c1ccc([N+](=O)[O-])o1 = inactive
19. O=C(Sc1cccc2cccnc12)c1ccccc1Br = active
20. N#C/C(=C(/O)COC(=O)CSc1ccc2ccccc2c1)c1nc2ccccc2[nH]1 = active
21. COc1cc(Nc2c3ccccc3nc3ccccc23)cc(OC)c1OC = inactive
22. COc1ccc(S(=O)(=O)Nc2ccccc2C(=O)Nc2nc(-c3ccc(F)cc3)cs2)cc1OC = active
23. O=C(N/N=C/c1ccccn1)c1sc2ccccc2c1Cl = active
24. Cc1conc1NC(c1cccs1)c1ccc2cccnc2c1O (configuration not stated) = inactive
25. COc1ccc(-c2csc(NC(=O)c3ccccc3NS(=O)(=O)c3ccc(C)cc3)n2)cc1 = active
26. COc1cc(OC)cc(-c2cc3nc(C)c(CCC(=O)O)c(C)n3n2)c1 = active
27. O=C(Nc1nnc(C2CC2)s1)c1cccc(S(=O)(=O)N2CCc3ccccc32)c1 = inactive
28. Cc1csc(SCC(=O)Nc2cccc3nsnc23)n1 = active
29. C=C(C)C(=O)O[C@H]1C/C(C)=C\C(=O)/C=C(\C)[C@H](O)[C@@H]2OC(=O)C(=C)[C@@H]21 = active
30. CC(/C=C/c1ccccc1)=N/NC(=O)c1cccc(Br)c1 = inactive
31. O=S(=O)(Nc1ccc(O)c2ccccc12)c1ccc(Br)cc1 = active
32. O=[N+]([O-])c1cc(S(=O)(=O)Nc2cccc(C(F)(F)F)c2)ccc1-n1nnc2ccccc21 = active
33. COc1cc(C(=O)Nc2ccc(-c3nc4cc(C)ccc4o3)c(O)c2)cc(OC)c1OC = inactive
34. O=C(Nc1nc2ccc([N+](=O)[O-])cc2s1)c1ccc(S(=O)(=O)N2CCCc3ccccc32)cc1 = active
35. Cc1cc(NC(c2cccnc2)c2ccc3cccnc3c2O)no1 (configuration not stated) = active
36. NC(=O)c1ccc(N2CCN(S(=O)(=O)c3ccccc3)CC2)c([N+](=O)[O-])c1 = inactive
37. Oc1nc(Nc2ccc(Cl)cc2Cl)sc1/C=C1\C=Nc2ccccc21 = inactive
38. CCc1cccc(CC)c1NC(=O)CN1CCc2cc(OC)c(OC)cc2C1 = inactive
39. O=C(N/N=C/c1ccc([N+](=O)[O-])o1)c1ccccc1-n1cccc1 = inactive
40. O=C(Sc1cccc2cccnc12)c1ccc(F)cc1 = active
41. COc1ccc(-c2csc(NC(=O)c3ccccc3NS(=O)(=O)c3ccc(F)c(F)c3)n2)cc1 = active
42. COc1ccc(Nc2cc(Nc3cc(OC)c(OC)c(OC)c3)ncn2)cc1 = active
